experiment: Tissue distribution of 18F imaging agents in rats; type: in vivo, Male Sprague Dawley rats; details: rat, iv tail vein ~15 μCi, 60 min post injection, ± SEM
quantity name: Kidney, imaging agent distribution at 60 min (% ID/g)

>  <molecule>
CC(C)n1ncc(OCc2ccc(COCCF)cc2)c(Cl)c1=O [Example 67H]

>  <measurement unit>
% ID/g

>  <data value>
0.49

$$$$
>  <molecule>
CC(C)(C)n1ncc(OCc2ccc(OCCCF)c(Cl)c2)c(Cl)c1=O [Example 67C]

>  <measurement unit>
% ID/g

>  <data value>
1.77

$$$$
>  <molecule>
CC(C)(C)n1ncc(OCc2ccc(Oc3cccnc3F)cc2)c(Cl)c1=O [Example 67O]

>  <measurement unit>
% ID/g

>  <data value>
0.83

$$$$
>  <molecule>
CC(C)(C)n1ncc(OCc2cccc(COCCF)c2)c(Cl)c1=O [Example 67A]

>  <measurement unit>
% ID/g

>  <data value>
0.23

$$$$
>  <molecule>
Cc1c(OCc2ccc(COCCF)cc2)cnn(C(C)(C)C)c1=O [Example 67I]

>  <measurement unit>
% ID/g

>  <data value>
0.48

$$$$

(I) [2H]C([2H])(OCCF)c1ccc(COc2cnn(C(C)(C)C)c(=O)c2Cl)cc1 [Example 67E]
(II) CC(OCCF)c1ccc(COc2cnn(C(C)(C)C)c(=O)c2Cl)cc1 (centres unmarked) [Example 67G]
Exercise: compare I and II ; which one has the greater Kidney, imaging agent distribution at 60 min? Response format: the label of the selected entry. I
(I: 0.98 % ID/g, II: 0.44 % ID/g)

(1) CC(C)(C)n1ncc(OCc2ccc(C#CCCF)cc2)c(Cl)c1=O [Example 67K]
(2) CC(C)(C)n1ncc(OCc2ccc(-c3cnc(F)nc3)cc2)c(Cl)c1=O [Example 67L]
I'm curious whether 1 or 2 has the smaller Kidney, imaging agent distribution at 60 min number. Which is it? Response format: the label of the selected entry. 2
(2: 0.40 % ID/g, 1: 0.83 % ID/g)

(a) CC(C)(C)n1ncc(OCc2ccc(OCCOCCF)cc2)c(Cl)c1=O [Example 67B]
(b) CC(C)(C)n1ncc(OCc2ccc(OCCF)cc2)c(Cl)c1=O [Example 67D]
(c) CC(C)(C)n1ncc(OCc2cccc(OCCF)c2)c(Cl)c1=O [Example 67F]
(d) CC(C)(C)n1ncc(OCc2ccc(C(=O)OCCF)cc2)c(Cl)c1=O [Example 67J]
Order these by Kidney, imaging agent distribution at 60 min, descending, and give the full ranking. Sort and list the labels as requested. b, a, c, d

====

experiment: Tissue distribution of 18F imaging agents in rats; assay type: in vivo, Male Sprague Dawley rats; details: rat, iv tail vein ~15 μCi, 60 min post injection, ± SEM
quantity name: Spleen, imaging agent distribution at 60 min (% ID/g)

Examples from the recorded data:
>  <compound>
CC(C)(C)n1ncc(OCc2ccc(-c3cnc(F)nc3)cc2)c(Cl)c1=O [Example 67L]

>  <measurement unit>
% ID/g

>  <data value>
0.11

$$$$
>  <compound>
[2H]C([2H])(OCCF)c1ccc(COc2cnn(C(C)(C)C)c(=O)c2Cl)cc1 [Example 67E]

>  <measurement unit>
% ID/g

>  <data value>
0.25

$$$$
>  <compound>
CC(C)(C)n1ncc(OCc2ccc(C#CCCF)cc2)c(Cl)c1=O [Example 67K]

>  <measurement unit>
% ID/g

>  <data value>
0.11

$$$$

(P) CC(C)(C)n1ncc(OCc2ccc(OCCOCCF)cc2)c(Cl)c1=O [Example 67B]
(Q) Cc1c(OCc2ccc(COCCF)cc2)cnn(C(C)(C)C)c1=O [Example 67I]
(R) CC(C)(C)n1ncc(OCc2ccc(C(=O)OCCF)cc2)c(Cl)c1=O [Example 67J]
(S) CC(C)(C)n1ncc(OCc2cccc(COCCF)c2)c(Cl)c1=O [Example 67A]
Reorder the items by Spleen, imaging agent distribution at 60 min, least to greatest. Sort and list the labels as requested. S, Q, P, R

(a) CC(OCCF)c1ccc(COc2cnn(C(C)(C)C)c(=O)c2Cl)cc1 (centres unmarked) [Example 67G]
(b) CC(C)(C)n1ncc(OCc2ccc(OCCCF)c(Cl)c2)c(Cl)c1=O [Example 67C]
Exercise: compare a and b ; which one has the greater Spleen, imaging agent distribution at 60 min? Response format: the label of the selected entry. a
(a: 0.28 % ID/g, b: 0.18 % ID/g)

(a) CC(C)n1ncc(OCc2ccc(COCCF)cc2)c(Cl)c1=O [Example 67H]
(b) CC(C)(C)n1ncc(OCc2ccc(Oc3cccnc3F)cc2)c(Cl)c1=O [Example 67O]
(c) CC(C)(C)n1ncc(OCc2ccc(OCCF)cc2)c(Cl)c1=O [Example 67D]
Reorder the items by Spleen, imaging agent distribution at 60 min, least to greatest. Sort and list the labels as requested. b, c, a

====

assay: Tissue distribution of 18F imaging agents in rats; assay type: in vivo, Male Sprague Dawley rats; settings: rat, iv tail vein ~15 μCi, 15 min post injection, ± SEM
quantity name: Kidney, imaging agent distribution at 15 min (% ID/g)

Examples from the recorded data:
>  <compound>
Cc1c(OCc2ccc(COCCF)cc2)cnn(C(C)(C)C)c1=O [Example 67I]

>  <measurement unit>
% ID/g

>  <data value>
1.13

$$$$
>  <compound>
[2H]C([2H])(OCCF)c1ccc(COc2cnn(C(C)(C)C)c(=O)c2Cl)cc1 [Example 67E]

>  <measurement unit>
% ID/g

>  <data value>
2.61

$$$$

(I) CC(C)(C)n1ncc(OCc2ccc(Oc3cccnc3F)cc2)c(Cl)c1=O [Example 67O]
(II) CC(C)(C)n1ncc(OCc2ccc(OCCOCCF)cc2)c(Cl)c1=O [Example 67B]
(III) CC(C)(C)n1ncc(OCc2ccc(OCCF)cc2)c(Cl)c1=O [Example 67D]
(IV) CC(C)(C)n1ncc(OCc2cccc(COCCF)c2)c(Cl)c1=O [Example 67A]
Reorder the items by Kidney, imaging agent distribution at 15 min, least to greatest. Sort and list the labels as requested. IV, I, II, III

====

test: Tissue distribution of 18F imaging agents in rats; format: in vivo, Male Sprague Dawley rats; settings: rat, iv tail vein ~15 μCi, 15 min post injection, ± SEM
quantity name: Pancreas, imaging agent distribution at 15 min (% ID/g)

Examples from the recorded data:
>  <compound>
CC(C)(C)n1ncc(OCc2ccc(-c3cnc(F)nc3)cc2)c(Cl)c1=O [Example 67L]

>  <measurement unit>
% ID/g

>  <data value>
0.36

$$$$
>  <compound>
CC(C)(C)n1ncc(OCc2cccc(COCCF)c2)c(Cl)c1=O [Example 67A]

>  <measurement unit>
% ID/g

>  <data value>
0.15

$$$$
>  <compound>
CC(C)(C)n1ncc(OCc2ccc(C(=O)OCCF)cc2)c(Cl)c1=O [Example 67J]

>  <measurement unit>
% ID/g

>  <data value>
0.23

$$$$
>  <compound>
CC(C)(C)n1ncc(OCc2ccc(Oc3cccnc3F)cc2)c(Cl)c1=O [Example 67O]

>  <measurement unit>
% ID/g

>  <data value>
0.55

$$$$
>  <compound>
Cc1c(OCc2ccc(COCCF)cc2)cnn(C(C)(C)C)c1=O [Example 67I]

>  <measurement unit>
% ID/g

>  <data value>
0.43

$$$$
>  <compound>
CC(C)(C)n1ncc(OCc2ccc(C#CCCF)cc2)c(Cl)c1=O [Example 67K]

>  <measurement unit>
% ID/g

>  <data value>
0.55

$$$$
>  <compound>
CC(C)n1ncc(OCc2ccc(COCCF)cc2)c(Cl)c1=O [Example 67H]

>  <measurement unit>
% ID/g

>  <data value>
0.44

$$$$
>  <compound>
CC(C)(C)n1ncc(OCc2cccc(OCCF)c2)c(Cl)c1=O [Example 67F]

>  <measurement unit>
% ID/g

>  <data value>
0.52

$$$$

(I) CC(OCCF)c1ccc(COc2cnn(C(C)(C)C)c(=O)c2Cl)cc1 (stereo not shown) [Example 67G]
(II) [2H]C([2H])(OCCF)c1ccc(COc2cnn(C(C)(C)C)c(=O)c2Cl)cc1 [Example 67E]
Exercise: compare I and II ; which one has the greater Pancreas, imaging agent distribution at 15 min? Response format: the label of the selected entry. II
(II: 0.82 % ID/g, I: 0.41 % ID/g)

====

Assay: Tissue distribution of 18F imaging agents in rats
Format: in vivo, Male Sprague Dawley rats
Details: rat, iv tail vein ~15 μCi, 15 min post injection, ± SEM
Protocol: Anesthetized (sodium pentobarbital at 50 mg/kg, ip or isoflurane gas inhalation) Male Sprague Dawley rats (250-350 g) received an iv injection of the imaging agent (˜15 μCi) via the tail vein. […] All samples were then weighed and counted for radioactivity (Wallac Wizard 1480 or Packard Cobra II Autogamma); regional tissue uptake of the imaging agent was thus expressed as a percentage of the total injected dose per gram of tissue (% ID/g). […]
quantity name: Blood, imaging agent distribution at 15 min (% ID/g)

>  <molecule>
CC(C)(C)n1ncc(OCc2ccc([Si](F)(C(C)(C)C)C(C)(C)C)cc2)c(Cl)c1=O [Example 67N]

>  <data value>
0.22

$$$$
>  <molecule>
CC(C)(C)n1ncc(OCc2ccc(Oc3cccnc3F)cc2)c(Cl)c1=O [Example 67O]

>  <data value>
0.07

$$$$
>  <molecule>
CC(C)n1ncc(OCc2ccc(COCCF)cc2)c(Cl)c1=O [Example 67H]

>  <data value>
0.45

$$$$

(A) CC(C)(C)n1ncc(OCc2ccc(C(=O)OCCF)cc2)c(Cl)c1=O [Example 67J]
(B) Cc1c(OCc2ccc(COCCF)cc2)cnn(C(C)(C)C)c1=O [Example 67I]
I'm curious whether A or B has the smaller Blood, imaging agent distribution at 15 min number. Which is it? Response format: the label of the selected entry. B

(a) CC(C)(C)n1ncc(CCc2ccc(COCCF)cc2)c(Cl)c1=O [Example 67M]
(b) CC(C)(C)n1ncc(OCc2ccc(-c3cnc(F)nc3)cc2)c(Cl)c1=O [Example 67L]
Exercise: compare a and b ; which one has the greater Blood, imaging agent distribution at 15 min? Response format: the label of the selected entry. a
